Test: Plasma pharmacokinetics after a single subcutaneous administration of LEN
Format: in vivo, rhesus macaques
Settings: male, Indian-origin (outbred), rhesus monkey, plasma, subcutaneous, 75 mg/kg, Plasma LEN, animal V435, 75 mg/kg, week 4 post challenge
experimentalReadout: concentration at 4 weeks post challenge (nM)
Answer in nM, number only, no unit symbol.

(Q) For `CC(C)(C#Cc1ccc(-c2ccc(Cl)c3c(NS(C)(=O)=O)nn(CC(F)(F)F)c23)c([C@H](Cc2cc(F)cc(F)c2)NC(=O)Cn2nc(C(F)(F)F)c3c2C(F)(F)[C@@H]2C[C@H]32)n1)S(C)(=O)=O` , what is its reported concentration at 4 weeks post challenge?
(A) 11.2

Data origin: paper PMC10425210
